Test system: 636577-100-R-J1-PDC complex spheroid viability
Assay: Anticancer human tumor 636577-100-R-J1-PDC patient-derived endometrial adenocarcinoma cell line growth inhibition [GQUAD]
Settings: second compound 1 µM; first compound 0.1 µM; stronger effect = lower value
From the text: DNA G-quadruplex Stabilizer Agents in Combinations in Complex Spheroids A high-throughput screen of multi-cell type tumor spheroids was designed to identify active combinations of DNA G-quadruplex stabilizer agents and targeted small molecules. […] Compounds. […] If the clinical Cmax for an agent had not been determined, the highest concentration tested was 10 microM. […]
Threshold check on viability, T/C: strictly below 40% is class 1; on or above 40% is class 0.

Below are worked cases with known answers.
>  <molecule>
COc1cccc2c1C(=O)c1c(O)c3c(c(O)c1C2=O)CC(O)(C(=O)CO)CC3OC1CC(N)C(O)C(C)O1 (configuration not stated) + Cc1cnc(CNC(=O)c2c(=O)c3ccc(N4CCCN(C)CC4)nc3n3c2sc2ccccc23)cn1

>  <group_label>
class 1

$$$$
>  <molecule>
COc1ccc([C@@H](O)c2cc(-c3ncnc4cc(N5CCOCC5)ccc34)c(F)cc2Cl)nn1 + Cc1[nH]c2ccc(F)cc2c1-c1nc2c3cccnc3c3ncccc3c2[nH]1

>  <group_label>
class 0

$$$$
>  <molecule>
CC1COCCN1c1cc(-c2ccnn2C)c2ccnc(-c3ccn[nH]3)c2n1 (configuration not stated) + Cc1cnc(CNC(=O)c2c(=O)c3ccc(N4CCCN(C)CC4)nc3n3c2sc2ccccc23)cn1

>  <group_label>
class 1

$$$$

Answer whether the molecule O=C(c1cc(Cc2n[nH]c(=O)c3ccccc23)ccc1F)N1CCN(C(=O)C2CC2)CC1 + CN(C)c1ccc(Nc2c3ccc(NC(=O)CCN4CCCC4)cc3nc3cc(NC(=O)CCN4CCCC4)ccc23)cc1 has viability, T/C strictly less than 40%
class 0

Answer whether the molecule CC1COCCN1c1cc(-c2ccnn2C)c2ccnc(-c3ccn[nH]3)c2n1 (configuration not stated) + Cc1[nH]c2ccc(F)cc2c1-c1nc2c3cccnc3c3ncccc3c2[nH]1 has viability, T/C strictly less than 40%
class 1

Answer whether the molecule CC1COCCN1c1cc(C2(O)CC3CCC(C2)O3)c2cnn(-c3ccn[nH]3)c2n1 (configuration not stated) + CN(C)c1ccc(Nc2c3ccc(NC(=O)CCN4CCCC4)cc3nc3cc(NC(=O)CCN4CCCC4)ccc23)cc1 has viability, T/C strictly less than 40%
class 1

Answer whether the molecule COc1cccc2c1C(=O)c1c(O)c3c(c(O)c1C2=O)CC(O)(C(=O)CO)CC3OC1CC(N)C(O)C(C)O1 (configuration not stated) + Cc1[nH]c2ccc(F)cc2c1-c1nc2c3cccnc3c3ncccc3c2[nH]1 has viability, T/C strictly less than 40%
class 1

###

System: 636577-100-R-J1-PDC complex spheroid viability
Assay: Anticancer human tumor 636577-100-R-J1-PDC cell line growth inhibition [GQUAD];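 further: viability read after seven days of drug exposure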
Conditions: curve of first compound; second compound 0.1 µM
pIC50: −log10 of the molar value.
reported_metric: pIC50

>  <compound>
COc1ncnc(C2CC2)c1-c1ncc2cnn(Cc3ccc(-c4nc(C(F)(F)F)cn4C(C)C)cc3)c2n1 + CN(C)c1ccc(Nc2c3ccc(NC(=O)CCN4CCCC4)cc3nc3cc(NC(=O)CCN4CCCC4)ccc23)cc1

>  <reported_value>
< 5.00

$$$$
>  <compound>
CC(=O)O[C@H]1C(=O)[C@@]2(C)[C@H]([C@H](OC(=O)c3ccccc3)[C@]3(O)C[C@H](OC(=O)[C@H](O)[C@@H](NC(=O)c4ccccc4)c4ccccc4)C(C)=C1C3(C)C)[C@]1(OC(C)=O)CO[C@@H]1C[C@@H]2O + CN(C)c1ccc(Nc2c3ccc(NC(=O)CCN4CCCC4)cc3nc3cc(NC(=O)CCN4CCCC4)ccc23)cc1

>  <reported_value>
> 7.50

$$$$

// below: pIC50 requested for another compound
GET /values?readout=pIC50&item= CC(=O)O[C@H]1C(=O)[C@@]2(C)[C@H]([C@H](OC(=O)c3ccccc3)[C@]3(O)C[C@H](OC(=O)[C@H](O)[C@@H](NC(=O)c4ccccc4)c4ccccc4)C(C)=C1C3(C)C)[C@]1(OC(C)=O)CO[C@@H]1C[C@@H]2O + Cc1cnc(CNC(=O)c2c(=O)c3ccc(N4CCCN(C)CC4)nc3n3c2sc2ccccc23)cn1
> 7.50
